- Assay Target: Full length human TBK1 (Homo sapiens)
- Construct: Full length human TBK1 with an N-terminal His-tag; His-tag (N); made in house; host or cells: Sf9 insect cells (baculovirus, pFastBac1)
- Test Description: Inhibition of TBK1 Enzyme (Caliper microfluidic assay)
- Format: biochemical
- Test Context: 25 μM ATP, 60 min at RT; -log(IC50), IC50 molar; read-out: TBK1 Inhibition (pIC50) (converted)
Readout: IC50

Previously resolved entries follow.
>  <Molecule>
O=C(NC1CCCOC1)c1nc(-c2ccc3nc(NC(=O)C4CC4)cn3c2)cs1 (stereo in doubt)

>  <IC50>
63.1 nM

$$$$
>  <Molecule>
O=C(N[C@H]1CCC[C@H]1O)c1nc(-c2ccc3nc(NC(=O)C4CC4)cn3c2)cs1

>  <IC50>
31.6 nM

$$$$
>  <Molecule>
CC1CCN(C(=O)c2nc(-c3ccc4nc(NC(=O)C5CC5)cn4c3)cs2)C1 (stereo not shown)

>  <IC50>
79.4 nM

$$$$

Ask | Which measured IC50 value corresponds to O=C(NCCC(F)(F)F)c1cc(-c2ccc3nc(NC(=O)C4CC4)cn3c2)cs1 ?
Reply | 10 nM

###

# IC50 listing for each entry below
- Assay Target: Full length human TBK1 (Homo sapiens, UniProt Q9UHD2)
- Construct: Full length human TBK1 with an N-terminal His-tag; His-tag (N); made in house; host or cells: Sf9 insect cells (baculovirus, pFastBac1)
- Sequence (Q9UHD2 whole entry): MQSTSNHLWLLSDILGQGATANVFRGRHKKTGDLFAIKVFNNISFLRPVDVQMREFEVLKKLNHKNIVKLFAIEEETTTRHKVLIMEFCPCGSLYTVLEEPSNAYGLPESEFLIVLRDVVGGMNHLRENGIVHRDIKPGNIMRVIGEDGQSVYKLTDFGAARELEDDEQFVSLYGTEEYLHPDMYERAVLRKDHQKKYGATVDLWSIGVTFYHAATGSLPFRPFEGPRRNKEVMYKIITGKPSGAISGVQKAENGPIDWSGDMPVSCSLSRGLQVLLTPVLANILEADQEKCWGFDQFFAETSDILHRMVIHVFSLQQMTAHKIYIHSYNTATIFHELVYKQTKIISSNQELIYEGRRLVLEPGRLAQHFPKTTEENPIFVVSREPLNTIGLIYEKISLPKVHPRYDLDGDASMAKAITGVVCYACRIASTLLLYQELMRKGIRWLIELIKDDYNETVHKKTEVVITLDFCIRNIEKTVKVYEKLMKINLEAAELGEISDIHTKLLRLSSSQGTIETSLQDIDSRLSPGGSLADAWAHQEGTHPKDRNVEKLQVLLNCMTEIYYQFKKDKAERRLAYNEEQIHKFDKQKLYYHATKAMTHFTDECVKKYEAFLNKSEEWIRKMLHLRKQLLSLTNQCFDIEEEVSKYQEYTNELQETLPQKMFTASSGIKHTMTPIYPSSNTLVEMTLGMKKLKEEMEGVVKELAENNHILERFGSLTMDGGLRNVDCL
- Test Description: Inhibition of TBK1 Enzyme (Caliper microfluidic assay)
- Format: biochemical
- Test Context: 25 μM ATP, 60 min at RT; -log(IC50), IC50 molar; read-out: TBK1 Inhibition (pIC50) (converted)
# number only, unit nM dropped from output

Here's what some known entries look like.
>  <Compound>
O=C1CC(NC(=O)c2nc(-c3ccc4nc(NC(=O)C5CC5)cn4c3)cs2)CN1 (centres unmarked) [Example 99]

>  <Measure Unit>
nM

>  <Endpoint Result>
251

$$$$
>  <Compound>
CC(C)CNC(=O)c1cc(-c2ccc3nc(NC(=O)C4CC4)cn3c2)cs1 [Example 63]

>  <Measure Unit>
nM

>  <Endpoint Result>
15.8

$$$$
>  <Compound>
Cc1sc(C(=O)NCC(F)(F)F)nc1-c1ccc2nc(NC(=O)C3CC3)cn2n1 [Example 20]

>  <Measure Unit>
nM

>  <Endpoint Result>
501

$$$$
>  <Compound>
O=C(NCC(F)(F)F)c1cc(-c2ccc3nc(NC(=O)C4CC4)cn3n2)cs1 [Example 44]

>  <Measure Unit>
nM

>  <Endpoint Result>
3.98

$$$$
>  <Compound>
O=C(NC1CCCOC1)c1cc(-c2ccc3nc(NC(=O)C4CC4)cn3c2)cs1 (centres unmarked) [Example 67]

>  <Measure Unit>
nM

>  <Endpoint Result>
63.1

$$$$
>  <Compound>
O=C(N[C@H]1CCOC1)c1nc(-c2ccc3nc(NC(=O)C4CC4)cn3c2)cs1 [Example 87]

>  <Measure Unit>
nM

>  <Endpoint Result>
63.1

$$$$
>  <Compound>
O=C(Nc1cn2cc(-c3csc(C(=O)N4CCC[C@@H]4C(F)(F)F)n3)ccc2n1)C1CC1 [Example 93]

>  <Measure Unit>
nM

>  <Endpoint Result>
7.94

$$$$
>  <Compound>
O=C(NCC(F)(F)F)c1ccn(-c2ccc3nc(NC(=O)C4CC4)cn3c2)n1 [Example 34]

>  <Measure Unit>
nM

>  <Endpoint Result>
20

$$$$
>  <Compound>
CC1CCCN1C(=O)c1cc(-c2ccc3nc(NC(=O)C4CC4)cn3c2)n[nH]1 (centres unmarked) [Example 123]

>  <Measure Unit>
nM

>  <Endpoint Result>
100

$$$$
>  <Compound>
O=C(CF)Nc1cn2cc(-c3csc(C(=O)NCC(F)(F)F)c3)ccc2n1 [Example 16]

>  <Measure Unit>
nM

>  <Endpoint Result>
79.4

$$$$

Ask | Find the measured IC50: item O=C(NCC(F)(F)F)c1nc(-c2ccc3nc(NC(=O)C4CC4)cn3n2)cs1 [Example 21] , target or system Full length human TBK1 (Homo sapiens, UniProt Q9UHD2).
Reply | 50.1

Ask | Quick check: IC50 on Full length human TBK1 (Homo sapiens, UniProt Q9UHD2), item O=C(Nc1cn2cc(-c3csc(C(=O)N(CCCO)CC(F)(F)F)c3)ccc2n1)C1CC1 [Example 119] ?
Reply | 10

Ask | Could you share what IC50 was measured for C[C@@H](NC(=O)c1cc(-c2ccc3nc(NC(=O)C4CC4)cn3c2)n[nH]1)C(F)(F)F [Example 104] , tested on Full length human TBK1 (Homo sapiens, UniProt Q9UHD2)?
Reply | 5.01
